- protocol.details: Chemical chemiluminescence (without cells): Luminol+SIN-1+selenite+BSA
- Design: concentration or dose not given beside the values
- condition.details: compared to ascorbic acid
In this section, each of the compounds is paired with its reported % Chemiluminescence inhibition.
Reply numerically in %, unit not repeated.

- Nc1c(N)n(C2CCc3ccccc32)c(=O)[nH]c1=O (stereo not drawn): 38
- CC1(C)CC(O)CC(C)(C)N1O [N-Hydroxy-tetramethyl-4-piperidinol, reference compound]: 42
- CC1(C)CC(O)CC(C)(C)N1[O] [reference compound]: 78

# get_value(readout='% Chemiluminescence inhibition', item= CN(C)c1cccc2c1CCC2Nc1cc(=O)[nH]c(=O)[nH]1.Cl (stereo not drawn) )
56

# get_value(readout='% Chemiluminescence inhibition', item= O=C1O[C@H]([C@@H](O)CO)C(O)=C1O [Ascorbic acid, reference compound] )
100

These entries and their values trace back to patent US20070021450A1.
